Reference source for all entries: patent US10150760B2

The entries below come with measured EC50 values attached.
Molecular target: human APJ receptor (Homo sapiens (Human))
Sequence (P35414 whole entry): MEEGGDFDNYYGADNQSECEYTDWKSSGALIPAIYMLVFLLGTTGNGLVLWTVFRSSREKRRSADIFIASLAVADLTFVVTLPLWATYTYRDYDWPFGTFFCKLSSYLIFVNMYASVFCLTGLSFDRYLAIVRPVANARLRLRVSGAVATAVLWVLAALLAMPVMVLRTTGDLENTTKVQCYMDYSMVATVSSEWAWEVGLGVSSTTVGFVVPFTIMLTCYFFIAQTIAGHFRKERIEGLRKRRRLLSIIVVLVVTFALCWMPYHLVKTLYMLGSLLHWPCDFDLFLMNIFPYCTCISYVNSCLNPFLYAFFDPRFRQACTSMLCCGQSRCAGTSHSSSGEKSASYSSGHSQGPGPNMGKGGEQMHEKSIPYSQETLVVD
Assay: [35S]GTPγS binding assay on membranes from CHO cells stably expressing human APJ receptor
Settings: read-out: Activity hAPJ SPA EC50 IP
Method: The human APJ receptor was cloned by polymerase chain reaction and the gene encoding the receptor was subcloned in pFLAG-CMV™-3 expression vector (Sigma, Saint Louis, Mo. USA) in-house at Amgen. […] The optimum experimental conditions for the concentrations of GDP, MgCl2, and NaCl in the assay buffer were initially determined. […] Nonspecific binding was determined in the presence of 100 μM GTPγS and was always less than 0.2% of total binding. […]
Assay Readout: EC50

- COCC1(n2c(NS(=O)(=O)[C@@H](C)[C@H](OC)c3ncc(Cl)cn3)nnc2[C@H]2CC[C@@H](C)O2)CC1 (single isomer, unassigned) [Example 285.0]: 64 nM
- CO[C@H](c1cnc(C)cn1)[C@H](C)S(=O)(=O)Nc1nnc([C@H]2CCCOC2)n1C1(C)CC1 (single isomer, unassigned) [Example 130.0]: 1800 nM
- COc1cccc(OC)c1-n1c(NS(=O)(=O)[C@@H](C)[C@H](O)c2ncc(C)cn2)nnc1[C@H]1CCOC1 (single isomer, unassigned) [Example 141.0]: 200 nM
- COc1cccc(OC)c1-n1c(NS(=O)(=O)[C@@H](C)[C@H](OC)c2ncc(Cl)cn2)nnc1[C@H]1CCCOC1 (single isomer, unassigned) [Example 65.0]: 2.9 nM
- COc1cccc(OC)c1-n1c(NS(=O)(=O)[C@@H](C)[C@@H](OC(C)C)c2ncc(Cl)cn2)nnc1[C@H]1CCC(C)(C)O1 (single isomer, unassigned) [Example 414.0]: 1.2 nM
